Source of measurements: the supplement of paper PMC10567573

Assay Name: protein stability index of a GFP-peptide fusion (GPS, HEK-293T) (PSI 1-6); higher = more stable;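 further: 24-mer peptide tiles fused after GFP, lentivirally expressed, FACS-sorted into six equal bins by GFP/DsRed ratio, decoded by Illumina sequencing, PSI is the read-weighted mean bin number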
Experimental Setup: treatment: DMSO; c terminus: a fixed tail appended
Measured Metric: protein stability index
API note: the answer field is a bare number with no unit suffix.

**Q:** For the sequence SSYSSCYSFGSGGGYGSSFGGVDG [KRT17] , what protein stability index is on record?
**A:** 2.69

**Q:** For the sequence IKEVVEKREACHCEEVKMTVASEA [FAN1] , what protein stability index is on record?
**A:** 4.89

**Q:** For the sequence LLWRKQLFCDVTLTAQGQQFHCHK [KLHL14] , what protein stability index is on record?
**A:** 2.23

**Q:** For the sequence TKRDSFLKRLYRAPIDWIEEYTTG [ALG2] , what protein stability index is on record?
**A:** 2.18

**Q:** For the sequence LKKSSQVPRTEAPAPASSTPQEPW [PDLIM7] , what protein stability index is on record?
**A:** 4.74

**Q:** For the sequence DPGQVGLINSNVSMVDLTSVTLED [FAN1] , what protein stability index is on record?
**A:** 5.05

**Q:** For the sequence LQHMKAVQADQERERQRRLEVERE [LRRC59] , what protein stability index is on record?
**A:** 5.24

**Q:** For the sequence LEDYINDRQYDSRGRFGELLLLLP [HNF4A] , what protein stability index is on record?
**A:** 2.19

**Q:** For the sequence EGREAPALVAAGGAPEDDEEDDGR [DENND6A] , what protein stability index is on record?
**A:** 5.68

**Q:** For the sequence SASPIKDQPVMAVKTGEDGSNLDD [FANCE] , what protein stability index is on record?
**A:** 5.66

**Q:** For the sequence GASKAAGVFGFFATIVFATDFYLI [CMTM3] , what protein stability index is on record?
**A:** 3.07

**Q:** For the sequence ADFESEDEGEEFDDWEDDYDYPEE [EID1] , what protein stability index is on record?
**A:** 4.62

**Q:** For the sequence KSEYMEIEEDMNNSIAHYRQVNIR [KCNA1] , what protein stability index is on record?
**A:** 3.34

**Q:** For the sequence NKVLVCPMKSAPVMLTLSDSKHVV [RBBP5] , what protein stability index is on record?
**A:** 2.57

**Q:** For the sequence SCPGSSYRTVVRPTYKVMYKIVTA [EMID1] , what protein stability index is on record?
**A:** 2.37

**Q:** For the sequence RCGKHFGTILNYLRDGAVPLPESR [KCTD10] , what protein stability index is on record?
**A:** 2.27

**Q:** For the sequence GLEGLFEDIDTSMYDNELWAPASE [SERTAD1] , what protein stability index is on record?
**A:** 3.79

**Q:** For the sequence LKQRTVIEMFKSITHSTVGSKGEK [EHMT1] , what protein stability index is on record?
**A:** 3.16

**Q:** For the sequence ILELLVLEQFLAILPKELQAWVQK [ZNF396] , what protein stability index is on record?
**A:** 2.67

**Q:** For the sequence EDLLLPGACPGADEAGGGAEGDSW [WEE1] , what protein stability index is on record?
**A:** 5.53

**Q:** For the sequence VHTEFTLRNFNSAKDMKKAVAHMK [MATN2] , what protein stability index is on record?
**A:** 3.95

**Q:** For the sequence GVLRPTVRPGTPPDFILKVVIDKH [CTDNEP1] , what protein stability index is on record?
**A:** 2.73

**Q:** For the sequence QSDTLEQREEHELVHVMERSLSPS [RAD54B] , what protein stability index is on record?
**A:** 5.45

**Q:** For the sequence APHHHHHHSHSGPEISRIIVDPTT [PLK2] , what protein stability index is on record?
**A:** 4.22

**Q:** For the sequence GYTFDYAYDWVGRPIPTPVGSVHV [CSNK1G1] , what protein stability index is on record?
**A:** 2.13

**Q:** For the sequence TCSRVDYCLLSDHGCEYSCVNMDR [MATN2] , what protein stability index is on record?
**A:** 2.84

**Q:** For the sequence QVPRSPVIKISYSTPQGKGEVVKI [PWWP2B] , what protein stability index is on record?
**A:** 2.73

**Q:** For the sequence EMLAAACQMFLGKTEAEIAHIALE [FLOT1] , what protein stability index is on record?
**A:** 3.15

**Q:** For the sequence FLVDMFNDEIEEVRLQSIHTMRKI [INTS4] , what protein stability index is on record?
**A:** 2.33

**Q:** For the sequence MIPGFRDLTSEDQIVLLKSSAIEV [VDR] , what protein stability index is on record?
**A:** 2.33

**Q:** For the sequence RGLRGEPGPQGSAGQRGEPGPKGD [EMID1] , what protein stability index is on record?
**A:** 5.19

**Q:** For the sequence SPRRSLYKLVGSPPWKEAFRQRCL [RPAIN] , what protein stability index is on record?
**A:** 2.27

**Q:** For the sequence ADSLQASMEKDATLNVDRKEKCVS [DLC1] , what protein stability index is on record?
**A:** 5.35

**Q:** For the sequence ILLSWTPPRSDTIANYELVYKDGE [PTPRD] , what protein stability index is on record?
**A:** 2.03

**Q:** For the sequence PRNPTVRWGYVAMKFAQVFGCFFY [SOAT1] , what protein stability index is on record?
**A:** 2.33

**Q:** For the sequence REIQPTAILSLDQIKAIRGSNEYT [SPRY1] , what protein stability index is on record?
**A:** 3.99

**Q:** For the sequence KHGIEYQSKPLLSAFADIIHSLKE [FADS1] , what protein stability index is on record?
**A:** 2.51

**Q:** For the sequence DILMEEEEGVVGGLSGGALSPLRA [TFE3] , what protein stability index is on record?
**A:** 4.45

**Q:** For the sequence REIKVTLVFEHVDQDLRTYLDKAP [CDK4] , what protein stability index is on record?
**A:** 2.65

**Q:** For the sequence RGLGSQASTVTEIVKQQDPLVYKA [ACSBG2] , what protein stability index is on record?
**A:** 4.32

**Q:** For the sequence KQKYFYKGGLVWDENSSDGRYVKE [CLK3] , what protein stability index is on record?
**A:** 3.53

**Q:** For the sequence NRLSIGLQSLDDTELRLLGRTHSA [RSAD1] , what protein stability index is on record?
**A:** 3.77

**Q:** For the sequence KKKGMYRKAITEAANAARHVAPEI [PWWP2B] , what protein stability index is on record?
**A:** 4.33

**Q:** For the sequence SRVAGFNPALQLILTRTDKTLNKK [TOR1AIP2] , what protein stability index is on record?
**A:** 4.25

**Q:** For the sequence SFWNSSHPRGWNDHVHILDTETFT [KLHDC2] , what protein stability index is on record?
**A:** 2.54
